Property: pEC50; scope: individual compounds
Target or test system: hT1R2/hT1R3 sweet receptor expressed in HEK293 cell line (Homo sapiens, UniProt Q7RTX0+Q8TE23)
Construct: expressed in transfected cells; host or cells: HEK293 derivative stably expressing Gα15 and hT1R2/hT1R3, clone S-9
Sequence (Q8TE23 20-839): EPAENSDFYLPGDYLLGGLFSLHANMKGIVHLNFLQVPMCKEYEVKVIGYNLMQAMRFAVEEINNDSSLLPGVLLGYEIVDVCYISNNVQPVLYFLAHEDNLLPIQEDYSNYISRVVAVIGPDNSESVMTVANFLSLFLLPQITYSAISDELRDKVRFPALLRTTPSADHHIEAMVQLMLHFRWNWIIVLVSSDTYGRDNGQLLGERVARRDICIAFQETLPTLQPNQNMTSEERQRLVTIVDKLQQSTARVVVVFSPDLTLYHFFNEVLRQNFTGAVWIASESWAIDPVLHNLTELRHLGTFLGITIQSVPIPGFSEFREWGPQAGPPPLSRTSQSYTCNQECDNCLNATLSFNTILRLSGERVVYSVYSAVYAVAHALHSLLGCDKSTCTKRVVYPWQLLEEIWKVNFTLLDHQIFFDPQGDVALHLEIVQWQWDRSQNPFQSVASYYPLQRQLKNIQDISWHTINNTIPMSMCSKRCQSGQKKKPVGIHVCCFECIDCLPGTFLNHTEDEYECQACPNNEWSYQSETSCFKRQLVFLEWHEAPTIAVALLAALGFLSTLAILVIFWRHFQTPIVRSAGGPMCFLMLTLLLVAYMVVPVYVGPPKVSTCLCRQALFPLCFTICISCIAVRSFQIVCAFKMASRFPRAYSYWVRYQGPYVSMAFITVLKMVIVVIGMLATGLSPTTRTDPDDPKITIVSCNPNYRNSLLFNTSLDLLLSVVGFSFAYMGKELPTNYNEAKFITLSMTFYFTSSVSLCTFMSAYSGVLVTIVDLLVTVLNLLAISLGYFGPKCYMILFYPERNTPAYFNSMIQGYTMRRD
Sequence (Q7RTX0 21-852): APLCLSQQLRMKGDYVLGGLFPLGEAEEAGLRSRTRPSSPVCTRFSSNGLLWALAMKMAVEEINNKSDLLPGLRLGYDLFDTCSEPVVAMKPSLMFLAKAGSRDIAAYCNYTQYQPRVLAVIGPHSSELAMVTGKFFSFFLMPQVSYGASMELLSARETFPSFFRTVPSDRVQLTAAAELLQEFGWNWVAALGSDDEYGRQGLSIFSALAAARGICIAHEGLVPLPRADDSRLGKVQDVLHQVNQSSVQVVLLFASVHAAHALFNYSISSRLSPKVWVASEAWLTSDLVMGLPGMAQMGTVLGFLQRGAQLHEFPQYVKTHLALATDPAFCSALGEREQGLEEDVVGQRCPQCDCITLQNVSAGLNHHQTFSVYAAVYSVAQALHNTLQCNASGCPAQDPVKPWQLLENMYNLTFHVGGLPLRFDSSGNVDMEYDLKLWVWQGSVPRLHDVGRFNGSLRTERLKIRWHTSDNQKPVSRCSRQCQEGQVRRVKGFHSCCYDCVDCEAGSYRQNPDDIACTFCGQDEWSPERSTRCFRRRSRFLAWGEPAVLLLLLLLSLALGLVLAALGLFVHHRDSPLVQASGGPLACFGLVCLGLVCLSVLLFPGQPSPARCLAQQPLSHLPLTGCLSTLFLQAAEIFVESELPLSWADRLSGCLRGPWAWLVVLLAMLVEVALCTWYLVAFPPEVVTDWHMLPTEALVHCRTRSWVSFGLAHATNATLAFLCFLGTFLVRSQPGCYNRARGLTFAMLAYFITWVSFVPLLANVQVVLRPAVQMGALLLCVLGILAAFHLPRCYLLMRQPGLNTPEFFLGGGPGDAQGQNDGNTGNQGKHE
Assay notes: In vitro hT1R2/hT1R3-HEK293 taste receptor activation assay (FLIPR)
Format: cell-based
Experimental parameters: read-out: EC50 for activation of a hT1R2/hT1R3 sweet receptor expressed in HEK293 cell line
pEC50 is defined as minus the log10 of a concentration measured in mol/L.

Worked set:
CCC(C)CNC(=O)C(C)(C)c1ccc(-c2cncnc2)cc1 (stereo not shown) [Compound 25]: 6.64
COC(=O)c1cccc(-c2ccc(C(C)(C)C(=O)NCC(C)C)cc2)c1 [Compound 10]: 6.05
CC(C)CNC(=O)C(C)(C)c1ccc(-c2cccc([N+](=O)[O-])c2)cc1 [Compound 8]: 6.40

-- ask Form field: reported pEC50 of CC(C)CNC(=O)C(C)(C)c1ccc(-c2cccc(O)c2)cc1 [Compound 11]
-- reply 5.72

###

Target or test system: hT1R2/hT1R3 sweet receptor expressed in HEK293 cell line (Homo sapiens, UniProt Q7RTX0+Q8TE23)
Construct: expressed in transfected cells; host or cells: HEK293 derivative stably expressing Gα15 and hT1R2/hT1R3, clone S-9
Sequence (Q8TE23 20-839): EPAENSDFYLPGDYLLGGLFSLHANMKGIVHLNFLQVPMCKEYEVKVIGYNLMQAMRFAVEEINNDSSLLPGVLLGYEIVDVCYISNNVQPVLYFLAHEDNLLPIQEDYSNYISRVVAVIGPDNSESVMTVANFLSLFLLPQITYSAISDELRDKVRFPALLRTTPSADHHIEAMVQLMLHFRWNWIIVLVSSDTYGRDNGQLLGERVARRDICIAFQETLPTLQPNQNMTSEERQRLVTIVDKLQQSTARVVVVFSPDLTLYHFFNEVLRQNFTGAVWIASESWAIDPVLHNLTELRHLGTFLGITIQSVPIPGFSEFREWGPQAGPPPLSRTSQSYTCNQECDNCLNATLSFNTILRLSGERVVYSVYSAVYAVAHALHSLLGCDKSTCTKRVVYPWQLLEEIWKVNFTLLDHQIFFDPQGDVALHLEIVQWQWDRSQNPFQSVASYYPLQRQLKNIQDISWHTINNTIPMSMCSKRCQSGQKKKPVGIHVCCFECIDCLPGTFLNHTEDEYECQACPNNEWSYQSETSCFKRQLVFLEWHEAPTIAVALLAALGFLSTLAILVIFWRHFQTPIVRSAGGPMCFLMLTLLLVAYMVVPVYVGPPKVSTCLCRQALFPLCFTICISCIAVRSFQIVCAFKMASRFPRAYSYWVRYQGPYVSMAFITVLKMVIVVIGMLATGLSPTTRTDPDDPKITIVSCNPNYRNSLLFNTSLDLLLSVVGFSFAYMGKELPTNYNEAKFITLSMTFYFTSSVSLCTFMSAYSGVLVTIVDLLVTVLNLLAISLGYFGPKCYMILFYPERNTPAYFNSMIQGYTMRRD
Sequence (Q7RTX0 21-852): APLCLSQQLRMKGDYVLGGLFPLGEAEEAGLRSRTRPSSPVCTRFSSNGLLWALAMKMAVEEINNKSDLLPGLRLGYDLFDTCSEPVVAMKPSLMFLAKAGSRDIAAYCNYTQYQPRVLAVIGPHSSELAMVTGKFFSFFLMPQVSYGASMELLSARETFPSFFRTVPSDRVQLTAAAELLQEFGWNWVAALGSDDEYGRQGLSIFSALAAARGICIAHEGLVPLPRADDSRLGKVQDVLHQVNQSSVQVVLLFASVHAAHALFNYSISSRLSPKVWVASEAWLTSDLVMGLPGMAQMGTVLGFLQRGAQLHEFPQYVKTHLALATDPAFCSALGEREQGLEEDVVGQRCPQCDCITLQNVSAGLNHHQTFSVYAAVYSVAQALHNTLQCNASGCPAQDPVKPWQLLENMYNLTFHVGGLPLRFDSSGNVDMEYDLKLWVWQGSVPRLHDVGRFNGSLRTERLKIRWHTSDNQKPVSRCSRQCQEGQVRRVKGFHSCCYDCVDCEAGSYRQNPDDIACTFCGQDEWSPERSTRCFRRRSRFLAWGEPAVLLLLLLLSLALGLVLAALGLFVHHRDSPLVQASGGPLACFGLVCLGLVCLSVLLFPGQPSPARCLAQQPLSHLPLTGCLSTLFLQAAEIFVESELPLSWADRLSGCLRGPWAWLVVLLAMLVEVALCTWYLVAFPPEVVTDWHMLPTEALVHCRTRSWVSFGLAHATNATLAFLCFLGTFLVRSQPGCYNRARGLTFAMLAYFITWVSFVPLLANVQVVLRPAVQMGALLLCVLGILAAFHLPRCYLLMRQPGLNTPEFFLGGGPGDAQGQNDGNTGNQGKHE
Assay notes: In vitro hT1R2/hT1R3-HEK293 taste receptor activation assay (FLIPR)
Type: cell-based
Experimental parameters: Table A; read-out: SWEET EC50
Property: pEC50; scope: individual compounds
pEC50 is defined as minus the log10 of a concentration measured in mol/L.

CC(C)CNC(=O)C(C)(C)c1ccc(-c2cscn2)cc1: 5.27
CCCNC(=O)C(C)(C)c1ccc(-c2cncc(C#N)n2)cc1: 6.33
CC(C)(C(=O)NCC1CC1)c1ccc(-c2cncc(C#N)c2)cc1: 6.96
CC(C)CNC(=O)C(C)(C)c1ccc(-c2cccnc2)cc1: 6.11

Please find the next compound below.
-- ask Form field: reported pEC50 of CC(C)CNC(=O)C(C)(C)c1ccc(-c2ccccc2)c(F)c1
-- reply 5.77
